System: kinases
assay-summary: KINOMEscan kinase binding assay (Eurofins/DiscoveRx), % Ctrl
measurement-parameters: 1 μM; EGFR(L747-T751del, Sins)
Item-by-item account of % Ctrl, EGFR(L747-T751del, Sins)
Note: unit % Ctrl is implicit; provide only the numeric part.

Sample answers from the record:
1) Cc1cc2c([nH]1)/C=C1\C(=O)Nc3ccc(cc31)-c1cnn(C)c1COCCN(C)C2=O
57
2) Cc1cc2c([nH]1)/C=C1\C(=O)Nc3ccc(cc31)-c1c(C)n[nH]c1CNCCN(C)C2=O
43
3) Cc1cc2c([nH]1)/C=C1\C(=O)Nc3ccc(cc31)-c1cnn(C)c1CNCCN(C)C2=O
54

Kindly review the next compound as well.
Tested system kinases; % Ctrl, EGFR(L747-T751del, Sins) recorded for `Cc1cc2c([nH]1)/C=C1\C(=O)Nc3ccc(cc31)-c1cnn(C)c1CN(C)CCN(C)C2=O` was 27
